# Test system: U251 CNS
# PROTOCOL_NOTES: NCI tumour cell line growth inhibition, 48 h
PROPERTY_MEASURED: TGI

[[record]]
compound = "COc1ccc(/C=C/C(=O)c2sc(-n3nc(-c4ccccc4)cc3-c3ccccc3)nc2C)cc1OC"
test_result = "> 100 µM"

[[record]]
compound = "O=C1CCn2c([nH]c3cccc4cccc2c43)=N1"
test_result = "> 100 µM"

[[record]]
compound = "N/C(CSCCSC/C(N)=N/O)=N\\O"
test_result = "> 100 µM"

[[record]]
compound = "CCc1cc(=O)n(/C(C)=C/c2ccccc2)n1C"
test_result = "> 100 µM"

[[record]]
compound = "CCOC(=O)C(C)NC(=O)N(C)C12CC3CC(CC(C3)C1)C2 (centres undefined)"
test_result = "> 500 µM"

[[record]]
compound = "COc1cc(/C=C/C(=O)O)ccc1OS(=O)(=O)O"
test_result = "> 100 µM"

[[record]]
compound = "CCC1(CC)C(=O)NC(=S)N=C1N"
test_result = "> 100 µM"

[[record]]
compound = "O=CN(O)CC(=O)O"
test_result = "> 100 µM"

[[record]]
compound = "COc1cc2nc(-c3c(F)cccc3F)n(Cc3c(F)cccc3F)c2cc1Cc1c(F)cccc1F"
test_result = "> 100 µM"

[[record]]
compound = "CCN(C(=O)N[C@H](C(=O)N[C@@H](C)C(=O)OC)C(C)C)c1ccccc1"
test_result = "86.6 µM"

[[record]]
compound = "COC(=O)C(CCSC)NC(=O)CSc1nnc(COc2ccc(Cl)cc2)n1-c1ccccc1 (centres undefined)"
test_result = "30.9 µM"

[[record]]
compound = "N#Cc1c(-c2ccccc2)nc2c(c(-c3ccccc3)nn2-c2ccccc2)c1-c1ccc(O)cc1"
test_result = "3.97 µM"

[[record]]
compound = "COc1ccc(C2C(N)=NCC2c2ccccn2)cc1 (centres undefined)"
test_result = "> 100 µM"

[[record]]
compound = "Cn1c(N)nc2c(nc(OCc3ccccc3)n2C2OC(CO)C(O)C2O)c1=O (centres undefined)"
test_result = "> 100 µM"

